Readings of crystal structure (soaking); WAC-MS hit for the listed compounds
# test target: NgUPPS (undecaprenyl diphosphate synthase) (Neisseria gonorrhoeae)
# Sequence (Q5F5X2 1-248): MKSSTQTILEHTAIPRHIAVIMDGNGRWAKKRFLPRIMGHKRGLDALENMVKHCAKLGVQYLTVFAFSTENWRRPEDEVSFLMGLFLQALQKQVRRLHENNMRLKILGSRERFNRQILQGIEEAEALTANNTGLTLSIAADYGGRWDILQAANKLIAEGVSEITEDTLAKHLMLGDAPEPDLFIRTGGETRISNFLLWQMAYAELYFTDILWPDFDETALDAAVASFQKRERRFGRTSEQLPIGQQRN
# assay notes: crystal structure
# Format: binding
# applied conditions: region 1; two sites

| compound | crystal structure (soaking); WAC-MS hit |
| --- | --- |
| O=C(O)c1ncccc1F [GF-0701] | 9OIW (GF-0701) |
| Cc1nonc1CO [PS-5549] | 9OHI (PS-5549) |
| OCc1cccs1 [PS-5570] | 9OHG (PS-5570) |

Shift focus to the following entry.
IN: Request: crystal structure (soaking); WAC-MS hit, test system NgUPPS (undecaprenyl diphosphate synthase) (Neisseria gonorrhoeae), entry O=C(O)c1cn2cc(Cl)ccc2n1 [4R-0623]
OUT: 9OHJ (4R-0623)

Values compiled from paper doi:10.1101/2025.05.21.654962v1.
